Test system: NCI-H1792
Experiment: relative viability (nuclei count vs DMSO), 5 days (fraction); higher = more cells survive
Conditions: first compound 2.53 µM
Each record here notes measured relative viability.
Answer with the value's number alone.

Here's what some known entries look like.
- Compound: "O=c1[nH]c2ccccc2n1C1CCN(CCCC(c2ccc(F)cc2)c2ccc(F)cc2)CC1 [Pimozide] + Nc1ncn([C@H]2C[C@H](O)[C@@H](CO)O2)c(=O)n1 [Decitabine] (partner 2 µM)"
  relative viability: 0.534
- Compound: "O=c1[nH]c2ccccc2n1C1CCN(CCCC(c2ccc(F)cc2)c2ccc(F)cc2)CC1 [Pimozide] + CC(=O)Nc1cccc(-n2c(=O)n(C3CC3)c(=O)c3c(Nc4ccc(I)cc4F)n(C)c(=O)c(C)c32)c1 [Trametinib] (partner 0.02 µM)"
  relative viability: 0.393
- Compound: "O=c1[nH]c2ccccc2n1C1CCN(CCCC(c2ccc(F)cc2)c2ccc(F)cc2)CC1 [Pimozide] + CC(C)C[C@H](NC(=O)[C@H](Cc1ccccc1)NC(=O)c1cnccn1)B(O)O [Bortezomib] (partner 0.002 µM)"
  relative viability: 0.875
- Compound: "O=c1[nH]c2ccccc2n1C1CCN(CCCC(c2ccc(F)cc2)c2ccc(F)cc2)CC1 [Pimozide] + COc1cccc2cc(-c3nc([C@H]4CC[C@H](C(=O)O)CC4)n4ncnc(N)c34)[nH]c12 [OSI-027] (partner 0.5 µM)"
  relative viability: 0.663
- Compound: "O=c1[nH]c2ccccc2n1C1CCN(CCCC(c2ccc(F)cc2)c2ccc(F)cc2)CC1 [Pimozide] + CC1(C)CCC(c2ccc(Cl)cc2)=C(CN2CCN(c3ccc(C(=O)NS(=O)(=O)c4ccc(N[C@H](CCN5CCOCC5)CSc5ccccc5)c(S(=O)(=O)C(F)(F)F)c4)cc3)CC2)C1 [Navitoclax] (partner 0.5 µM)"
  relative viability: 0.599
- Compound: "Cc1cnc(-c2cnc(NCCNc3ccc(C#N)cn3)nc2-c2ccc(Cl)cc2Cl)[nH]1 + Cc1nc(Nc2ncc(C(=O)Nc3c(C)cccc3Cl)s2)cc(N2CCN(CCO)CC2)n1 [Dasatinib] (partner 0.075 µM)"
  relative viability: 0.762
- Compound: "Cc1cnc(-c2cnc(NCCNc3ccc(C#N)cn3)nc2-c2ccc(Cl)cc2Cl)[nH]1 + CC(C)C[C@H](NC(=O)[C@H](Cc1ccccc1)NC(=O)c1cnccn1)B(O)O [Bortezomib] (partner 0.002 µM)"
  relative viability: 0.915
- Compound: "O=c1[nH]c2ccccc2n1C1CCN(CCCC(c2ccc(F)cc2)c2ccc(F)cc2)CC1 [Pimozide] + CC(=O)c1c(C)c2cnc(Nc3ccc(N4CCNCC4)cn3)nc2n(C2CCCC2)c1=O [Palbociclib] (partner 0.5 µM)"
  relative viability: 0.589

Query O=c1[nH]c2ccccc2n1C1CCN(CCCC(c2ccc(F)cc2)c2ccc(F)cc2)CC1 [Pimozide] + CS(=O)(=O)CCNCc1ccc(-c2ccc3ncnc(Nc4ccc(OCc5cccc(F)c5)c(Cl)c4)c3c2)o1 [Lapatinib] (partner 2 µM) yields relative viability of 0.846

Query O=c1[nH]c2ccccc2n1C1CCN(CCCC(c2ccc(F)cc2)c2ccc(F)cc2)CC1 [Pimozide] + Cc1nc(NC(=O)N2CCC[C@H]2C(N)=O)sc1-c1ccnc(C(C)(C)C(F)(F)F)c1 [Alpelisib] (partner 2 µM) yields relative viability of 0.575
